Target: T1, human GM-CSF (human, UniProt P04141 18-144)
T1 construct: mature; the preparation is named under assay or readout; also called hGM-CSF; recombinant human GM-CSF
T1 sequence (P04141 18-144): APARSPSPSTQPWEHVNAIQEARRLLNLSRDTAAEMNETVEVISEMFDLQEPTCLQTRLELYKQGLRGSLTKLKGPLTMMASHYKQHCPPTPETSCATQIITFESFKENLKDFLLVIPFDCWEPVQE
Experiment: SPR (Biacore), Fab over immobilized recombinant human GM-CSF (Peprotech), F1 chip; affinity estimated from off-rates
pKd: −log10 of the molar value.

BINDER	pKd
MOR03929 Fab (Fab, V domains shown, Parental HuCAL GOLD Fab with C-terminal FLAG and 6xHis tags) VH: QVQLVESGGGLVQPGGSLRLSCAASGFTFSSYWMNWVRQAPGKGLEWVSGISYSGSETYYADSVKGRFTISRDNSKNTLYLQMNSLRAEDTAVYYCARGFGTDFWGQGTLVTVSS VL: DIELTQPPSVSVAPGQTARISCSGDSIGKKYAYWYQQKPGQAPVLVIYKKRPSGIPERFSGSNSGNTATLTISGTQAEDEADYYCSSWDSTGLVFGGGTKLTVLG	8.37
MOR03684 Fab (Fab, V domains shown, carries two C-terminal tags (FLAG and 6xHis); also called antibody no) VH: QVQLVESGGGLVQPGGSLRLSCAASGFTFSSHWMSWVRQAPGKGLEWVSNGIFSDGSATYYADSVKGRFTISRDNSKNTLYLQMNSLRAEDTAVYYCARFQGYGGGFDYWGQGTLVTVSS VL: DIELTQPPSVSVAPGQTARISCSGDNLPGKYVHWYQQKPGQAPVLVIYYDSNRPSGIPERFSGSNSGNTATLTISGTQAEDEADYYCQSRTQTTIVFGGGTKLTVLG	8.19
MOR04350 Fab (Fab, V domains shown, X-cloned Fab (VH of MOR04287 x VL of MOR04302) with FLAG and 6xHis tags) VH: QVQLVESGGGLVQPGGSLRLSCAASGFTFSSYWMNWVRQAPGKGLEWVSGIENKRAGGATFYAASVKGRFTISRDNSKNTLYLQMNSLRAEDTAVYYCARGFGTDFWGQGTLVTVSS VL: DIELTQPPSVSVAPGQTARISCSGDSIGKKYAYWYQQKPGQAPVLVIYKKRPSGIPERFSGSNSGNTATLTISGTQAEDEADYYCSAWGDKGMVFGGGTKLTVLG	10.72
MOR04251 Fab (Fab, V domains shown) VH: QVQLVESGGGLVQPGGSLRLSCAASGFTFSSHWMSWVRQAPGKGLEWVSNIWRGPYIYYADSVKGRFTISRDNSKNTLYLQMNSLRAEDTAVYYCARFQGYGGGFDYWGQGTLVTVSS VL: DIELTQPPSVSVAPGQTARISCSGDNLPGKYVHWYQQKPGQAPVLVIYYDSNRPSGIPERFSGSNSGNTATLTISGTQAEDEADYYCQSRTQTTIVFGGGTKLTVLG	10.15
MOR04252 Fab (Fab, V domains shown, Fab with FLAG and 6xHis tags) VH: QVQLVESGGGLVQPGGSLRLSCAASGFTFSSYWMNWVRQAPGKGLEWVSGIENKYAGGATYYAASVKGRFTISRDNSKNTLYLQMNSLRAEDTAVYYCARGFGTDFWGQGTLVTVSS VL: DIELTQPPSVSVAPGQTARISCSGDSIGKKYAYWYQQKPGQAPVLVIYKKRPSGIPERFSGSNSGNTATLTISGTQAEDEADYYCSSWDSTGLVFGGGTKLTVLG	10.26
MOR04290 Fab (Fab, V domains shown, Fab with FLAG and 6xHis tags) VH: QVQLVESGGGLVQPGGSLRLSCAASGFTFSSYWMNWVRQAPGKGLEWVSGIESKWAGGATYYAAGVKGRFTISRDNSKNTLYLQMNSLRAEDTAVYYCARGFGTDFWGQGTLVTVSS VL: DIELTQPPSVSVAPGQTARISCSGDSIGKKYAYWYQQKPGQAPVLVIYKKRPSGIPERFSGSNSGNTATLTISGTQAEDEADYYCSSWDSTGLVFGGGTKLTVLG	9.91
MOR04354 Fab (Fab, V domains shown, X-cloned Fab (VH of MOR04290 x VL of MOR04302) with FLAG and 6xHis tags) VH: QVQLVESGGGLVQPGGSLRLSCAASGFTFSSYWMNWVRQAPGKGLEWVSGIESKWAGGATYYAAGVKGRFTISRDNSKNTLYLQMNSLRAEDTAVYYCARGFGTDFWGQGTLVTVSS VL: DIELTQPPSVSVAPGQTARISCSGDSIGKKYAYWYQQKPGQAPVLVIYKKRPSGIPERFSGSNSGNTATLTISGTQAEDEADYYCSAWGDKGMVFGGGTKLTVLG	10.68
MOR04302 Fab (Fab, V domains shown, Fab with FLAG and 6xHis tags) VH: QVQLVESGGGLVQPGGSLRLSCAASGFTFSSYWMNWVRQAPGKGLEWVSGISYSGSETYYADSVKGRFTISRDNSKNTLYLQMNSLRAEDTAVYYCARGFGTDFWGQGTLVTVSS VL: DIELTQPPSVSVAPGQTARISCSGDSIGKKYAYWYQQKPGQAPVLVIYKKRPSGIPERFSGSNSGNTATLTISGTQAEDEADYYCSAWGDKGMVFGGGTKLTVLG	9.76

Taken from patent US20090053213A1.
